All values here come from PubChem BioAssay (NCATS).

assay: qHTS assay for small molecule agonists of retinoid X receptor alpha signaling (AID 588544); conditions: HEK293T RXRa-UAS-bla, beta-lactamase reporter, 18 h; 530 nm emission
Records with an inconclusive call do not appear.

compound: CO[Si](CCCNCCN)(OC)OC
max response (%): 7.5

compound: O=C1CCC(C2CCCCC2)CC1
max response (%): -15.9

compound: O=C(Cl)c1ccc(C(=O)Cl)cc1
max response (%): -3.06

compound: CCCCCCC(C)(C)S
max response (%): -19.5

compound: O=C(c1ccccc1)c1ccc(O)c(O)c1O
max response (%): 27

compound: FC(F)(F)c1ccc(Cl)c(Cl)c1
max response (%): -13.8

compound: O=C(O)CCCCCCCCCCC(=O)O
max response (%): 0.198

compound: CC1=CC(=O)CC(C)(C)C1
max response (%): -20.2

compound: CC(C)C(=O)OCC(C)(C)C(O)C(C)C (stereo not drawn)
max response (%): 6.96

compound: CC1(C)C(=O)N(Br)C(=O)N1Cl
max response (%): -10

compound: CC(C)(C)c1n[nH]c(=O)n(N)c1=O
max response (%): -20

compound: Brc1ccc(Br)c(Br)c1
max response (%): 0.274

compound: CSc1ccc(Cl)cc1
max response (%): 8.86
